Reference source: PubChem BioAssay

Here, each record is paired with measured inhibition data.
# assay name: blockers of RIG-like receptor reporter activation – cell-based, Sendai virus stimulus, luciferase, 10K MLSCN set, TLR/RLR signaling modifier project, primary screen (AID 602276);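 further: firefly luciferase from ISG56 promoter only with Renilla not read in this screen; 0% = Sendai virus plus DMSO and 100% = medium plus DMSO without virus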
# measurement conditions: HEK293 RL24 IRF3 luciferase reporter, at 10 µM, stronger effect = higher value
Kindly provide the numeric value in % only, without the unit symbol.

In [3]: df
Out[3]:
                                   compound  value
0  CC(=O)NC(CCS(C)(=O)=O)C(=O)Nc1cccc(C)c1C (stereo unspecified)   17.7

### Prompt # lookup: inhibition of COCCNC(=O)c1snc2ccc(Cl)cc12
### Response -23.6

### Prompt # lookup: inhibition of CCN(CC)CCCN1C(=O)C(=O)/C(=C(/O)c2ccc3c(c2)OCO3)C1c1ccccn1 (stereo unspecified)
### Response -5.97

### Prompt # lookup: inhibition of O=C(Nc1ccc(NC(=O)c2ccco2)nc1)c1cccnc1
### Response -21.2

### Prompt # lookup: inhibition of COc1ccc(C2c3sc(=O)[nH]c3SC3C4CCC(C4)C23)cc1 (stereo unspecified)
### Response -5.3

### Prompt # lookup: inhibition of COc1ccc(NC(=O)c2cc(C3CC3)on2)c(OC)c1
### Response -6.03

### Prompt # lookup: inhibition of CC1(C)CC(=O)C=C(NC2CCS(=O)(=O)C2)C1 (stereo unspecified)
### Response 15.5

### Prompt # lookup: inhibition of COc1cc(OC)c(-c2nn3c(C4CCCCC4)nnc3s2)cc1OC
### Response 12.8

### Prompt # lookup: inhibition of COc1ccc(N2CCN(Cc3nc(-c4ccc(Cl)cc4Cl)no3)CC2)cc1
### Response 18.6

### Prompt # lookup: inhibition of COC(=O)c1ccc(-c2nn(C)c(=O)c3ccccc23)cc1
### Response 8.98

### Prompt # lookup: inhibition of Cc1ccccc1N1OC2C(=O)N(c3ccc(F)cc3)C(=O)C2C1c1ccccn1 (stereo unspecified)
### Response 10.4

----------
# assay name: reduction of polyQ htt aggregates in cells – imaging, exon1htt(103Q)mCFP cells, high-content imaging, primary screen (AID 483);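 further: compound exposure lasted 3 days before fixation; percent of the per-plate median nuclei count of sample wells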
# measurement conditions: exon1htt(103Q)mCFP cell line, aggregate imaging, at 2 µM; measured here: cell count, toxicity
measurement label: nuclei count (%)
Kindly provide the numeric value in % only, without the unit symbol.

See these solved cases before continuing.
>>> print(df.to_string())
                                   compound  measurement_label  value
0    CSc1ccc(Cn2nnc(C(=O)NCc3ccccc3)c2N)cc1       nuclei count    100
1     Cc1nnc(SCc2cc(=O)[nH]c(N3CCCCC3)n2)s1       nuclei count   96.3
2  CCOC(=O)c1c(C)[nH]c(C(=O)Cn2c(=O)oc3ccccc32)c1C       nuclei count   97.3

### Prompt # lookup: nuclei count of COc1ccc(C(=O)c2ccccc2)c(O)c1
### Response 94.1

### Prompt # lookup: nuclei count of CCCN(C(=O)CSc1nnc(-c2ccoc2C)n1N)C1CCS(=O)(=O)C1 (stereo not drawn)
### Response 116

----------
# assay name: endothelial E-selectin expression blockers – imaging, HUVEC, immunofluorescence, MLSMR starter and 10KST1 sets, primary screen (AID 487);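 further: 100% = median nuclei count of all wells on the same plate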
# measurement conditions: HUVEC TNFalpha-induced E-selectin immunofluorescence imaging, at 2 µM; measured here: cell number, toxicity
Where a SMILES comes first, the peptide text is derived from it. The star is where a group is joined. Boc = CC(C)(C)OC(=O)*
measurement label: nuclei count (%)
Kindly provide the numeric value in % only, without the unit symbol.

compound	unit descriptor	nuclei count
CCN(C(=O)COC(=O)c1cc(C)n(-c2ccc(F)cc2)c1C)C1CCS(=O)(=O)C1 (stereo not given)	%	115

### Prompt # lookup: nuclei count of CCn1cc(C2Nc3ccccc3C(=O)N2O)c(C)n1 (stereo not given)
### Response 104

### Prompt # lookup: nuclei count of CC(C)CC(NC(=O)OC(C)(C)C)C(=O)NC(C(=O)N1CCCC1C(N)=O)C(C)C (stereo not drawn) (Boc-Leu-Val-Pro-NH2; configuration not given here)
### Response 89.1

### Prompt # lookup: nuclei count of COc1cc(SC)ccc1C(=O)Nc1ccon1
### Response 91.2
